Experiment: protein stability index of a GFP-peptide fusion (yeast GPS) (PSI 1-4); higher = more stable; sorted into four equal gates, so the index is relative within each strain
Settings: doa10∆
experimental.readout: protein stability index

macromolecule.sequence: SSEQFNVWDWNNWTSAT [GAL11]
observed.measurement: 3.08

macromolecule.sequence: NVVNYLSINKNFINQED [RPC17]
observed.measurement: 1.39

macromolecule.sequence: PQRLQRKRHQRALKVRN [RPS6A]
observed.measurement: 2.96

macromolecule.sequence: SDNIASLQYINIRGNTI [SMD1]
observed.measurement: 3.08

macromolecule.sequence: IKLVKQNDELKFQGVLE [RPC34]
observed.measurement: 3.25

macromolecule.sequence: LGRVRNHFIFNVESAGA [RPC40]
observed.measurement: 1.38

macromolecule.sequence: NYTDLIWFPEDFISPEL [MED1]
observed.measurement: 2.56

macromolecule.sequence: TAVATLLKELSKNAQFI [SMC3]
observed.measurement: 2.88
